Ref: paper PMC7265341

Target or test system: CDK12/Cyclin K (Homo sapiens)
Sequence (Q9NYV4 1-1481 isoform Q9NYV4-2): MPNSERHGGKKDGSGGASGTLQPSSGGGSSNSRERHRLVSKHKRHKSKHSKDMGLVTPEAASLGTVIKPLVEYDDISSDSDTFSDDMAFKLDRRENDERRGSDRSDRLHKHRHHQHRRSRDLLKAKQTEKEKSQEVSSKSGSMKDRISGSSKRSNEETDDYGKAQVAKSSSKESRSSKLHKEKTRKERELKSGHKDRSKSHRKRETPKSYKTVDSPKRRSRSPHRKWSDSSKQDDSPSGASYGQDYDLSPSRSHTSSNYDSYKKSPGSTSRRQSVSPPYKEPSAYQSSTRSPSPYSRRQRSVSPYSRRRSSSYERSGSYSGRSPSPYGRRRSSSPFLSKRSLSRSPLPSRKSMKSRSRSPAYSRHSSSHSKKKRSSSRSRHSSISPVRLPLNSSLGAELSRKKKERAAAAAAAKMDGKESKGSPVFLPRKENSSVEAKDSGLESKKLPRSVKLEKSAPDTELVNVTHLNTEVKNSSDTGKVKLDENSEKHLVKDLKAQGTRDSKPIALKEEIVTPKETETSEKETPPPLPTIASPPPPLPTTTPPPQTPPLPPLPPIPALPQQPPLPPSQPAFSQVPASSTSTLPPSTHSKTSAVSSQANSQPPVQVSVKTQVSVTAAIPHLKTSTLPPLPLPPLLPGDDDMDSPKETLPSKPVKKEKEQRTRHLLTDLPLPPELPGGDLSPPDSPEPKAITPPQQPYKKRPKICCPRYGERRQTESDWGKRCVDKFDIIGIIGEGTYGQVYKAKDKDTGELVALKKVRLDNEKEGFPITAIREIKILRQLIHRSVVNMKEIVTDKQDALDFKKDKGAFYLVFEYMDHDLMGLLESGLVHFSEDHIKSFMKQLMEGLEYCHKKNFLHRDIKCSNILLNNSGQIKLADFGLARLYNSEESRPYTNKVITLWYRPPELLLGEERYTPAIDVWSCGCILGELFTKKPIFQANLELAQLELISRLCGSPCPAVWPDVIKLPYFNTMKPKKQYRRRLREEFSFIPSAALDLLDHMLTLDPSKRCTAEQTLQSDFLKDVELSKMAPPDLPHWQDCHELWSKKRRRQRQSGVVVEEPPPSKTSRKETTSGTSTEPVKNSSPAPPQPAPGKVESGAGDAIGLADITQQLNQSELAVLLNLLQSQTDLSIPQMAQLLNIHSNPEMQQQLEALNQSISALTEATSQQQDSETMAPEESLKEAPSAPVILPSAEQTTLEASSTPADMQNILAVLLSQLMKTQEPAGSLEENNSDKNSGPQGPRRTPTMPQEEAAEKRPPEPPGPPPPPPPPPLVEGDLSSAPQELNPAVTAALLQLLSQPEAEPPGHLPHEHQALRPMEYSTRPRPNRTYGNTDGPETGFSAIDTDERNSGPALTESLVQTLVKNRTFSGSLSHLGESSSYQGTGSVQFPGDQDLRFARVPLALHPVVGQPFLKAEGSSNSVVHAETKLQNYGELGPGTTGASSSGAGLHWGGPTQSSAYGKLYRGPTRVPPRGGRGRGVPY
Sequence (O75909 whole entry partner): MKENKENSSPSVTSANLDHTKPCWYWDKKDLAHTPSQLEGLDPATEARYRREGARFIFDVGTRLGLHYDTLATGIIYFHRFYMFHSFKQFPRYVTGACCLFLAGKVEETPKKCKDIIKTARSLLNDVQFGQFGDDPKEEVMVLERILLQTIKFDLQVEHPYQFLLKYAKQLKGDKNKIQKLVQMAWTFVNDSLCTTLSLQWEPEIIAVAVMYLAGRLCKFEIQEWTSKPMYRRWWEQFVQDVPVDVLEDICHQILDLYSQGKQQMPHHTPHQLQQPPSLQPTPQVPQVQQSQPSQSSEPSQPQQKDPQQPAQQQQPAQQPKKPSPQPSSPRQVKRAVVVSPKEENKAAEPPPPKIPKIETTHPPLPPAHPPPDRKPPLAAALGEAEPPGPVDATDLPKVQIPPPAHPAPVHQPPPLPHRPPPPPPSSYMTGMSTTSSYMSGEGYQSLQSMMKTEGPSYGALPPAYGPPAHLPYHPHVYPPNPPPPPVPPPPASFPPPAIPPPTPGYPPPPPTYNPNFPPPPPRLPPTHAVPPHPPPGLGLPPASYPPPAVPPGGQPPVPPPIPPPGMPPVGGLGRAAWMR
Test method notes: NanoBRET live-cell target engagement, CDK12-NanoLuc/Cyclin K in HEK-293
Format: binding
Study conditions: CDK12/K; experiment 2; read-out: Inhibition at 10µM (%)
Kindly state inhibition at 10 µM for each of the entries shown.
# number only, unit % dropped from output

Ask | Report measured inhibition at 10 µM; entry is N#CCNC(=O)c1ccc(-c2ccnc(Nc3ccc(N4CCOCC4)cc3)n2)cc1
Reply | -23.5

Ask | Return inhibition at 10 µM (reported value) for this compound: CC(C)c1cnn2c(NCc3ccccc3)cc(NC[C@H]3CCNC[C@@H]3O)nc12
Reply | 45.2

Ask | Please report the measured inhibition at 10 µM for CC(C)(C)c1nc(-c2cccc(NS(=O)(=O)c3c(F)cccc3F)c2F)c(-c2ccnc(N)n2)s1
Reply | 34.6

Ask | Give a short answer stating reported inhibition at 10 µM for Cn1cc(-c2ccc(-c3cncc(Cl)c3N3CCC4(CCNC4=O)CC3)cc2)cn1 .
Reply | -6.8

Ask | Tell me inhibition at 10 µM reported for CN1CCN(Cc2ccc(NC(=O)Nc3ccc(Oc4ccnc(N)n4)cc3)cc2C(F)(F)F)CC1
Reply | 48.3

Ask | Find the measured inhibition at 10 µM of CNC(=O)c1nn(C)c2c1C(C)(C)Cc1cnc(Nc3ccc(N4CCN(C)CC4)cc3)nc1-2 and report it.
Reply | 10.6

Ask | Determine its reported inhibition at 10 µM: NS(=O)(=O)c1ccc(Nc2nc(OCC3CCCCC3)c3nc[nH]c3n2)cc1
Reply | -1.8

Ask | Return inhibition at 10 µM (reported value) for this compound: CN1CCN(c2ccc(Nc3ncc4cc(C#N)c(=O)n(C5CCCC5)c4n3)cc2)CC1
Reply | -5

Ask | Respond only with inhibition at 10 µM recorded for CC(C)N1CCN(c2ccc(Nc3ncc4cc5n(c4n3)C3(CCCCC3)CNC5=O)nc2)CC1
Reply | 18.4

Ask | Determine its reported inhibition at 10 µM: CN1CC[C@H](c2c(O)cc(O)c3c(=O)cc(-c4ccccc4Cl)oc23)[C@H](O)C1
Reply | 45.6

---

Target or test system: CDK8/Cyclin C (Homo sapiens)
Test method notes: NanoBRET live-cell target engagement, NanoLuc-CDK8/Cyclin C in HEK-293
Assay type: binding
Study conditions: live HEK-293; read-out: Kd-apparent, CDK8 live-cell occupancy
pKd: −log10 of the molar value.
Property name: pKd

Ask | Supply measured pKd of CCCCOc1c(C(=O)c2c(F)cc(C)cc2F)c[nH]c2nncc1-2 in your reply.
Reply | > 8.70

---

Target or test system: CDK8/Cyclin C (Homo sapiens, UniProt P49336)
Sequence (P49336 whole entry): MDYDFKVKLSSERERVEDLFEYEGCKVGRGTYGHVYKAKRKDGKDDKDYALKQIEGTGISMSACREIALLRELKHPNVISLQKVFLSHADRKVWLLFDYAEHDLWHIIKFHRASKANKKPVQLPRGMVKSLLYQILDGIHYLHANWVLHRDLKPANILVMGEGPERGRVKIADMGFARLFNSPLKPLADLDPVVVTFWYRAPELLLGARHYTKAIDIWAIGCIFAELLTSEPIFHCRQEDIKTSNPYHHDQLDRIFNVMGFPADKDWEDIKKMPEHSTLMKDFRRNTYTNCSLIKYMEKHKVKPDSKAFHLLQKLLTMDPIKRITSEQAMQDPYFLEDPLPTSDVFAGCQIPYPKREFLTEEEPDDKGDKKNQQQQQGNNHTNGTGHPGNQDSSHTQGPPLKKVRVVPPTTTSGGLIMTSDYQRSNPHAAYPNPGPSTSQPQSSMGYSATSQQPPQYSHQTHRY
Sequence (P24863 whole entry partner): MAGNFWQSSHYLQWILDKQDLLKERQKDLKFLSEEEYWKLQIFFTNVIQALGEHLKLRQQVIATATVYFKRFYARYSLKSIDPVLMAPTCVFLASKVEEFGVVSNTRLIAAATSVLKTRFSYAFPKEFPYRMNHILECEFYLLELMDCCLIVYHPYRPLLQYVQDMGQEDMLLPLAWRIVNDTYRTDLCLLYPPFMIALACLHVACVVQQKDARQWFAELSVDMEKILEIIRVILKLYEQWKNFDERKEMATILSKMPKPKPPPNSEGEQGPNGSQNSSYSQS
Test method notes: NanoBRET live-cell target engagement, NanoLuc-CDK8/Cyclin C in HEK-293
Type: binding
Study conditions: CDK8/C; experiment 2; read-out: IC50
Property name: pIC50
For clarity, pIC50 is expressed as the negative log10 of concentration in mol/L.

Ask | In one line, give reported pIC50 of the entry CN1CCN(Cc2ccc(NC(=O)Nc3ccc(Oc4ccnc(N)n4)cc3)cc2C(F)(F)F)CC1 .
Reply | 8.30

Ask | Check the records and state pIC50 for CCn1cnc2c(Nc3cccc(Cl)c3)nc(N[C@@H]3CCCC[C@@H]3N)nc21 [CGP74514A]
Reply | 6.64
